Molecular target: EP4 receptors (Homo sapiens)
Construct: expressed in transfected cells; host or cells: HEK-293
Sequence (P35408 whole entry): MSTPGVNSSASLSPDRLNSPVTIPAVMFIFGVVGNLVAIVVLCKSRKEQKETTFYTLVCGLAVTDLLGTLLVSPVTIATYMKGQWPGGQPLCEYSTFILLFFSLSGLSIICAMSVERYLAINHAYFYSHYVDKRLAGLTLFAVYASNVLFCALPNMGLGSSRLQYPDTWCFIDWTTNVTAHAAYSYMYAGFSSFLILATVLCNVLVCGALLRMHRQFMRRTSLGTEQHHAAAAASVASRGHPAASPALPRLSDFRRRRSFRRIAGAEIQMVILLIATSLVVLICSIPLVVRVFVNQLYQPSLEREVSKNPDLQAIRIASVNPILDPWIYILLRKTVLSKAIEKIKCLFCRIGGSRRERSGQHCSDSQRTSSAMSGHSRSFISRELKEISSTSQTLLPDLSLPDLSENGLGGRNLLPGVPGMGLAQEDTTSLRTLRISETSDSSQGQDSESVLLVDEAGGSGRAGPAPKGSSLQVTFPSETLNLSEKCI
Test: Radioligand binding [3H]PGE2, EP4 Ki
Details: [3H]PGE2 competition, HEK-293 cells expressing EP4
Procedure: HEK-293 cells stably expressing the human or feline FP receptor, or EP1, EP2, or EP4 receptors were washed with TME buffer, scraped from the bottom of the flasks, and homogenized for 30 sec using a Brinkman PT 10/35 polytron. […] The cell homogenate was centrifuged at 19000 r.p.m. for 20 min at 4° C. using a Beckman Ti-60 rotor. The resultant pellet was resuspended in TME buffer to give a final 1 mg/ml protein concentration, as determined by Biorad assay. […]
pKi: −log10 of the molar value.
Assign class by pKi: not lower than 6 means 1 (yes); lower than 6 means 0 (no).

>  <COMPOUND>
O=C(O)c1ccc(CCC[C@@H]2[C@@H](CCc3cc(Cl)cc(Cl)c3)[C@@H](O)C[C@H]2Cl)s1

>  <LABEL VALUE>
0 (no)

$$$$
>  <COMPOUND>
O=C(O)c1ccc(CCC[C@@H]2[C@@H](CCc3cc(Cl)nc(Cl)c3)[C@H](O)C[C@H]2Cl)s1 [11b]

>  <LABEL VALUE>
1 (yes)

$$$$
>  <COMPOUND>
O=C(O)c1ccc(CCC[C@@H]2[C@@H](CCc3cc(F)cc(F)c3)[C@H](O)C[C@H]2Cl)s1 [11d]

>  <LABEL VALUE>
0 (no)

$$$$
>  <COMPOUND>
O=C(O)c1ccc(CCC[C@@H]2[C@@H](CCc3cc(Cl)cc(Cl)c3)[C@H](O)C[C@H]2Cl)s1 [11a]

>  <LABEL VALUE>
1 (yes)

$$$$
>  <COMPOUND>
O=C(O)c1ccc(CCC[C@@H]2[C@@H](CCc3cc(Cl)cc(CO)c3)[C@H](O)C[C@H]2Cl)s1 [11c]

>  <LABEL VALUE>
1 (yes)

$$$$
>  <COMPOUND>
OCc1ccc(CCC[C@@H]2[C@@H](CCc3cc(Cl)cc(Cl)c3)[C@H](O)C[C@H]2Cl)s1

>  <LABEL VALUE>
0 (no)

$$$$

Origin of measurements: patent US7592366B2
